- subject_of_test: Cyclin-dependent kinase 2 (Homo sapiens, UniProt P24941)
pIC50: −log10 of the molar value.
# pIC50 listing for each entry below
observation_type: pIC50

[[record]]
cpd_smiles = "COc1ccc(-c2ccc3c(-c4nc5c(N6CCN(C)CC6)cccc5[nH]4)n[nH]c3c2)c(OC)c1"
test_value = 5.00

[[record]]
cpd_smiles = "CN1CCN(c2cccc3[nH]c(-c4n[nH]c5cc(-c6ccc(N)c(F)c6)ccc45)nc23)CC1"
test_value = 5.76

[[record]]
cpd_smiles = "COc1cc(-c2ccc3c(-c4nc5c(N6CCN(C)CC6)cccc5[nH]4)n[nH]c3c2)ccc1N"
test_value = 6.61

[[record]]
cpd_smiles = "CN1CCN(c2cccc3[nH]c(-c4n[nH]c5cc(-c6cccc(N)c6)ccc45)nc23)CC1"
test_value = 5.21


Hey, just so you know, these numbers are from ChEMBL document CHEMBL1143269.
